# Tested on: L929 fibroblasts
# assay_name: MTT cytotoxicity assay
# measurement_context: read-out: IC50 L929; MTT, 48 h
Reported IC50 values for the following molecules.

- CC1CCCC2(C)CC3OC(=O)C(CN4CCN(c5ccccc5)CC4)C3C3OC132 (stereo not drawn): 25.4 µM
- CC1CCCC2(C)CC3OC(=O)C(CN4CCN(c5ccc(F)cc5)CC4)C3C3OC132 (stereo not drawn): 52.8 µM
- Cc1cccc(N2CCN(CC3C(=O)OC4CC5(C)CCCC(C)C56OC6C43)CC2)c1 (stereo not drawn): 62.8 µM

Prompt line: Provide only the value of recorded IC50 for COc1ccc(CN2CC3C(=O)OC4CC5(C)CCCC(C)C5(O)C2C43)cc1OC (stereo not drawn)
Response line: 92.6 µM

Prompt line: Provide only the value of recorded IC50 for CC1CCCC2(C)CC3OC(=O)C4CN(CCc5c[nH]c6ccccc56)C(C34)C12O (stereo not drawn)
Response line: 40.5 µM

Prompt line: Provide only the value of recorded IC50 for CC1CCCC2(C)CC3OC(=O)C(CN4CCN(c5ncccn5)CC4)C3C3OC132 (stereo not drawn)
Response line: 23.1 µM

---

# System: HEK-293T cells
# assay_name: MTT cytotoxicity assay
# measurement_context: read-out: IC50 HEK-293T; MTT
experimental_readout: pIC50
// pIC50: -log10(molar conc.)

Look over these answered cases.
- COc1ccc(CN2CC3C(=O)OC4CC5(C)CCCC(C)C5(O)C2C43)cc1OC (stereo not drawn) [SL8]: 4.04
- CC1CCCC2(C)CC3OC(=O)C(CN4CCN(c5ncccn5)CC4)C3C3OC132 (stereo not drawn) [SL35]: 4.83
- Cc1cccc(N2CCN(CC3C(=O)OC4CC5(C)CCCC(C)C56OC6C43)CC2)c1 (stereo not drawn) [SL31]: 4.61

Prompt line: Provide only the value of recorded pIC50 for CC1CCCC2(C)CC3OC(=O)C(CN4CCN(c5ccc(F)cc5)CC4)C3C3OC132 (stereo not drawn) [SL14]
Response line: 4.29

Prompt line: Provide only the value of recorded pIC50 for CC1CCCC2(C)CC3OC(=O)C(CN4CCN(c5ccccc5)CC4)C3C3OC132 (stereo not drawn) [SL10]
Response line: 4.84

Prompt line: Provide only the value of recorded pIC50 for CC1CCCC2(C)CC3OC(=O)C4CN(CCc5c[nH]c6ccccc56)C(C34)C12O (stereo not drawn) [SL33]
Response line: 4.53

---

# Test system: L929 fibroblasts
# assay_name: MTT cytotoxicity assay
# measurement_context: Mus musculus, L929, 48 h, read-out: IC50 L929
experimental_readout: IC50 (µM)
// note: answer is a bare numeric in µM

Prompt line: Provide only the value of recorded IC50 for N#CC[C@H](C1CCCC1)n1cc(-c2ncnc3[nH]ccc23)cn1 [Ruxolitinib, reference compound]
Response line: 80.4
